- experiment notes: Solubility of clonazepam in neat solvents
- conditions used: glycofurol (neat solvent), organic solvent or mixture
value kind: solubility (mg/mL)
Report as a plain number; the unit mg/mL is understood.

Prompt: What does the record list as solubility for O=C1CN=C(c2ccccc2Cl)c2cc([N+](=O)[O-])ccc2N1 [Clonazepam] ?
Completion: 67.3

====

- experiment notes: Solubilities of clonazepam in water-containing solvents
- Format: physicochemical
- conditions used: 1,2-dimethyxoethane / pH 6.8 buffered water mixture (40:60), 25 °C, pH 6.8, aqueous with cosolvent or surfactant or cyclodextrin, kinetic from dmso stock, 1,2-dimethyxoethane 40% solvent, 60% pH6.8 buffered water, 25° C.
value kind: solubility (µg/mL)
The reply should be a number in µg/mL, with the unit left off.

Prompt: Name the reported solubility value associated with the compound O=C1CN=C(c2ccccc2Cl)c2cc([N+](=O)[O-])ccc2N1 [Clonazepam]
Completion: 640

Data origin: patent US8609651B2
